Molecular target: T1, recombinant human HER2 extracellular domain protein (human, UniProt P04626 23-652)
T1 construct: range 23-652; Range is printed for the immunogen/panning protein; also called ErbB2; recombinant HER2 protein
Assay: BLI, Protein A capture
Entries and their kon
Numbers only here, please. The scale is M⁻¹ s⁻¹.

>>> endpointresult("Hu2126-H2K1-L71-H72b-Mu16 (antibody, IgG1, V domains shown, IgG1/Cκ; also called 7172b-Mu16) VH: QVQLVQSGSELKKPGASVKVSCKASGYTFTDYSMHWVRQAPGQGLEWMGWINTGTGEPTYADDFKGRFTISRDTSKSTAYLQISSLKAEDTAVYYCVRVGRYDYAMDYWGQGTTVTVSS VL: DIQMTQSPSSLSASVGDRVTITCRASQDVYTAVAWYQQKPGKAPKLLINRASSRPTGVPSRFSGSGSGTDFTLTISSLQPEDFATYYCQQYYSTPPTFGGGTKVEIK")
100000
>>> endpointresult("Hu2126-H2K1-L71-H72b-Mu11 (antibody, IgG1, V domains shown, IgG1/Cκ; also called 7172b-Mu11) VH: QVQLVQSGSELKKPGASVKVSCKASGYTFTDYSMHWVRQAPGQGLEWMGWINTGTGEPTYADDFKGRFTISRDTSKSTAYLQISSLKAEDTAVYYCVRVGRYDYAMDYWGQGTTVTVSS VL: DIQMTQSPSSLSASVGDRVTITCRASQDVYTAVAWYQQKPGKAPKLLINDASSRPTGVPSRFSGSGSGTDFTLTISSLQPEDFATYYCQQYYSTPPTFGGGTKVEIK")
90100

Pending binder:
Query: Could you tell me which kon is on file for Hu2126-H2K1-L71-H72b-Mu10 (antibody, IgG1, V domains shown, IgG1/Cκ; also called 7172b-Mu10) VH: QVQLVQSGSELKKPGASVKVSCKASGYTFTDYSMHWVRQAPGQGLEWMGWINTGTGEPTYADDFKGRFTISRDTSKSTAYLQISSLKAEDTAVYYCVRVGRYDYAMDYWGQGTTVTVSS VL: DIQMTQSPSSLSASVGDRVTITCRASQDVYTAVAWYQQKPGKAPKLLINAASSRPTGVPSRFSGSGSGTDFTLTISSLQPEDFATYYCQQYYSTPPTFGGGTKVEIK ?
Reply: 105000
